Data origin: paper PMC11576293

System: SF-295
test method notes: NCI-60 single-dose screen
Type: cell-based
recorded conditions: Homo sapiens, single dose 10 µM, '-' = no inhibition, read-out: % Growth Inhibition
measured quantity: inhibition at 10 µM (%)
# output: bare number, implied unit %

Answered cases to consult:
molecule: C=CCSc1nc(-c2ccc(Cl)cc2)cc(-c2ccc(OC)c(OC)c2)n1 [Compound 27]
units symbol: %
inhibition at 10 µM: 3

molecule: COc1ccc(-c2cc(-c3cccc(OC)c3)nc(SC(C)C)n2)cc1 [Compound 19]
units symbol: %
inhibition at 10 µM: 4.16

molecule: COc1ccc(-c2cc(-c3ccc(Cl)cc3)nc(SC(C)C)n2)cc1 [Compound 12]
units symbol: %
inhibition at 10 µM: 4.52

molecule: CCSc1nc(-c2ccc(Cl)cc2)cc(-c2ccc(OC)c(OC)c2)n1 [Compound 24]
units symbol: %
inhibition at 10 µM: 7.88

molecule: COc1ccc(-c2cc(-c3ccc(Cl)cc3)nc(SC)n2)cc1OC [Compound 23]
units symbol: %
inhibition at 10 µM: 12.4

stdin: Given COc1ccc(CSc2nc(-c3ccc(Cl)cc3)cc(-c3ccc(OC)c(OC)c3)n2)cc1 [Compound 29] , respond with its inhibition at 10 µM.
stdout: 16.7

stdin: Given COc1ccc(-c2cc(-c3cccc(OC)c3)nc(SC)n2)cc1 [Compound 16] , respond with its inhibition at 10 µM.
stdout: 4.05

stdin: Given CCCSc1nc(-c2ccc(Cl)cc2)cc(-c2ccc(OC)c(OC)c2)n1 [Compound 25] , respond with its inhibition at 10 µM.
stdout: 5.66

stdin: Given CCSc1nc(-c2ccc(Cl)cc2)cc(-c2ccc(OC)cc2)n1 [Compound 10] , respond with its inhibition at 10 µM.
stdout: 2.91

stdin: Given C=CCSc1nc(-c2ccc(Cl)cc2)cc(-c2ccc(OC)cc2)n1 [Compound 13] , respond with its inhibition at 10 µM.
stdout: 1.47

stdin: Given CCCSc1nc(-c2ccc(Cl)cc2)cc(-c2ccc(OC)cc2)n1 [Compound 11] , respond with its inhibition at 10 µM.
stdout: 6.79

stdin: Given COc1ccc(-c2cc(-c3ccc(Cl)cc3)nc(SCc3ccccc3)n2)cc1OC [Compound 28] , respond with its inhibition at 10 µM.
stdout: 7.84

stdin: Given COc1ccc(-c2cc(-c3ccc(Cl)cc3)nc(SC)n2)cc1 [Compound 9] , respond with its inhibition at 10 µM.
stdout: 7.84

stdin: Given C=CCSc1nc(-c2ccc(OC)cc2)cc(-c2cccc(OC)c2)n1 [Compound 20] , respond with its inhibition at 10 µM.
stdout: 3.19
